inhibition (INH) overview
# Tested on: Rattus norvegicus
# Assay Overview: Antiovulatory activity in Sprague-Dawley rat at 1 mg, sc administered at 12 pm on proestrous day relative to vehicle-treated control
# Type: functional
Square brackets hold non-standard residues; d marks the D form. Peptide text beside a SMILES is read from it. pGlu = O=C1CC[C@@H](C(=O)O)N1

Some solved cases for reference:
1. CC(C)C[C@H](NC(=O)[C@@H](CCCCNC(=O)[C@H](Cc1ccc(O)cc1)NC(=O)[C@H](CO)NC(=O)[C@@H](Cc1c[nH]c2ccccc12)NC(=O)[C@@H](Cc1ccccc1)NC(=O)[C@@H]1CCC(=O)N1)NC(=O)[C@H](Cc1ccc(O)cc1)NC(=O)[C@H](CO)NC(=O)[C@@H](Cc1c[nH]c2ccccc12)NC(=O)[C@@H](Cc1ccccc1)NC(=O)[C@@H]1CCC(=O)N1)C(=O)N[C@@H](CCCNC(=N)N)C(=O)N1CCC[C@H]1C(=O)NCC(N)=O = 73%
2. CC(C)C[C@H](NC(=O)[C@@H](Cc1ccccc1)NC(=O)[C@H](Cc1ccc(O)cc1)NC(=O)[C@H](CO)NC(=O)[C@@H](Cc1c[nH]c2ccccc12)NC(=O)[C@@H](Cc1ccccc1)NC(=O)[C@@H]1CCC(=O)N1)C(=O)N[C@@H](CCCNC(=N)N)C(=O)N1CCC[C@H]1C(=O)NCC(N)=O = 83%
3. CC(C)C[C@H](NC(=O)[C@@H](CCCCNC(=O)c1ccccc1)NC(=O)[C@H](Cc1ccc(O)cc1)NC(=O)[C@H](CO)NC(=O)[C@@H](Cc1c[nH]c2ccccc12)NC(=O)[C@@H](Cc1ccccc1)NC(=O)[C@@H]1CCC(=O)N1)C(=O)N[C@@H](CCCNC(=N)N)C(=O)N1CCC[C@H]1C(=O)NCC(N)=O = 11%

Please find the next molecule below.
The molecule identified as CC(C)C[C@H](NC(=O)[C@@H](CCCCN)NC(=O)[C@H](Cc1ccc(O)cc1)NC(=O)[C@H](CO)NC(=O)[C@@H](Cc1c[nH]c2ccccc12)NC(=O)[C@@H](Cc1ccccc1)NC(=O)[C@@H]1CCC(=O)N1)C(=O)N[C@@H](CCCNC(=N)N)C(=O)N1CCC[C@H]1C(=O)NCC(N)=O ([pGlu][dF][dW]SY[dK]LRPG-NH2) registered its inhibition (INH) at 0%

---

# Tested on: Rattus norvegicus
# Assay Overview: In vivo inhibition of LH-RH receptor in immature rat assessed as inhibition of LH-RH-stimulated luteinizing hormone release in serum at 300 ug, sc administered 1 hr prior to LH-RH addition measured after 30 mins relative to vehicle-treated control
# Format: functional
Square brackets hold non-standard residues; d marks the D form. Peptide text beside a SMILES is read from it. pGlu = O=C1CC[C@@H](C(=O)O)N1
Readout Label: inhibition (INH) (%)
Output spec: scalar in %, unitless text.

Some solved cases for reference:
1. CC(C)C[C@H](NC(=O)[C@@H](Cc1ccccc1)NC(=O)[C@H](Cc1ccc(O)cc1)NC(=O)[C@H](CO)NC(=O)[C@@H](Cc1c[nH]c2ccccc12)NC(=O)[C@@H](Cc1ccccc1)NC(=O)[C@@H]1CCC(=O)N1)C(=O)N[C@@H](CCCNC(=N)N)C(=O)N1CCC[C@H]1C(=O)NCC(N)=O = 84
2. COc1ccc2c(c1)c(CC(=O)NCCCC[C@@H](NC(=O)[C@H](Cc1ccc(O)cc1)NC(=O)[C@H](CO)NC(=O)[C@@H](Cc1c[nH]c3ccccc13)NC(=O)[C@@H](Cc1ccccc1)NC(=O)[C@@H]1CCC(=O)N1)C(=O)N[C@@H](CC(C)C)C(=O)N[C@@H](CCCNC(=N)N)C(=O)N1CCC[C@H]1C(=O)NCC(N)=O)c(C)n2C(=O)c1ccc(Cl)cc1 = 7
3. CC(=O)Oc1ccccc1C(=O)NCCCC[C@@H](NC(=O)[C@H](Cc1ccc(O)cc1)NC(=O)[C@H](CO)NC(=O)[C@@H](Cc1c[nH]c2ccccc12)NC(=O)[C@@H](Cc1ccccc1)NC(=O)[C@@H]1CCC(=O)N1)C(=O)N[C@@H](CC(C)C)C(=O)N[C@@H](CCCNC(=N)N)C(=O)N1CCC[C@H]1C(=O)NCC(N)=O = 57
4. CC(C)C[C@H](NC(=O)[C@@H](CCCCN)NC(=O)[C@H](Cc1ccc(O)cc1)NC(=O)[C@H](CO)NC(=O)[C@@H](Cc1c[nH]c2ccccc12)NC(=O)[C@@H](Cc1ccccc1)NC(=O)[C@@H]1CCC(=O)N1)C(=O)N[C@@H](CCCNC(=N)N)C(=O)N1CCC[C@H]1C(=O)NCC(N)=O ([pGlu][dF][dW]SY[dK]LRPG-NH2) = 36

Please find the next molecule below.
Readout inhibition (INH) for CC(C)C[C@H](NC(=O)[C@@H](CCCCNC(=O)[C@H](Cc1ccc(O)cc1)NC(=O)[C@H](CO)NC(=O)[C@@H](Cc1c[nH]c2ccccc12)NC(=O)[C@@H](Cc1ccccc1)NC(=O)[C@@H]1CCC(=O)N1)NC(=O)[C@H](Cc1ccc(O)cc1)NC(=O)[C@H](CO)NC(=O)[C@@H](Cc1c[nH]c2ccccc12)NC(=O)[C@@H](Cc1ccccc1)NC(=O)[C@@H]1CCC(=O)N1)C(=O)N[C@@H](CCCNC(=N)N)C(=O)N1CCC[C@H]1C(=O)NCC(N)=O , test system Rattus norvegicus, was 62
